EXPERIMENTAL_PROTOCOL: physchem
Assay type: physicochemical
MEASUREMENT_CONDITIONS: hplc c18, acidic formic acid
OBSERVABLE: chromatographic logP

compound Cn1c(-c2ncccc2SC(F)(F)F)nc2cc(C(F)(F)F)ncc21 , chromatographic logP observed: 3
